Entries and their Tm
# run_description: melting temperature; fluorescence melt of hairpins on a sequencing array, two-state fit, raised by 9.35 °C to match UV melts
# condition_label: sodium 0.088 M
Write down the numeric answer in °C and omit the unit.

Please review the following examples before continuing.
residue_codes: GATCGCGAAAGCGAGATC ((((((....)))..)))
unit_name: °C
Tm: 60.6

residue_codes: GAGACCGAAAGGTCCCTC ((((((....)))..)))
unit_name: °C
Tm: 44.6

residue_codes: GTTGCTGGAAACAACAAC ((((.((....)).))))
unit_name: °C
Tm: 38.8

In the following, a different sequence is considered.
The value of Tm measured for the sequence GCACAGCGAAAGCCGCGC ((.(.((....)).).)) turned out to be 46.5

---

# run_description: melting temperature; fluorescence melt of hairpins on a sequencing array, two-state fit, raised by 9.35 °C to match UV melts
# condition_label: sodium 0.088 M
outcome_measure: Tm (°C)
Write down the numeric answer in °C and omit the unit.

Please review the following examples before continuing.
residue_codes: GGCGACGGAAACGTTGCC (((.(((....))).)))
Tm, °C: 65
//
residue_codes: GATCCATCACTGGATC ((((((....))))))
Tm, °C: 50.2
//
residue_codes: GGAGGTGGAAACGCCTCC (((((.(....).)))))
Tm, °C: 57.2
//
residue_codes: GGATGCGAAAGCAGCTCC ((((((....)))..)))
Tm, °C: 47.5
//
residue_codes: GCATGTCGAAAGACCTGC (((.(((....))).)))
Tm, °C: 50.6
//
residue_codes: GATCTTCTGCAAGATC ((((((....))))))
Tm, °C: 42.9
//
residue_codes: GTACGGGGAAACCCATAC (((.(((....))).)))
Tm, °C: 35
//
residue_codes: GATCGAGTGGTCGATC ((((((....))))))
Tm, °C: 53.9
//
residue_codes: GCTCTCGCGAAAGCGAGC (((..(((....))))))
Tm, °C: 38.3
//
residue_codes: GCAAGGGGAAACCCCTGC (((.(((....))).)))
Tm, °C: 51.1

The value of Tm measured for the sequence GTGGGAGGAAACTCTCAC (((.(((....))).))) turned out to be 48.7

The value of Tm measured for the sequence GAGTAAGGAAACCTACTC (((((.(....).))))) turned out to be 33.2

The value of Tm measured for the sequence GTTAGCGGAAACGTTGAC ((.(.((....)).).)) turned out to be 30

The value of Tm measured for the sequence GAATCCCGAAAGGGGTTC (((.(((....))).))) turned out to be 58.1

The value of Tm measured for the sequence GTCAGCGAAAGCTAAGAC ((((((....)))..))) turned out to be 41.5

The value of Tm measured for the sequence GGGGTGGGAAACCACCTC (.(((((....))))).) turned out to be 55.2

The value of Tm measured for the sequence GCTTCCGAAAGGACGAGC ((((((....)))..))) turned out to be 37.6

---

# run_description: melting temperature; fluorescence melt of hairpins on a sequencing array, two-state fit, raised by 9.35 °C to match UV melts
# condition_label: sodium 0.088 M
Entries and their Tm
Write down the numeric answer in °C and omit the unit.

The value of Tm measured for the sequence GGCTCCGGAAACGAAGCC ((((.((....)).)))) turned out to be 50.7

The value of Tm measured for the sequence CGTTTCGGAAACGAGACG (((.(((....))).))) turned out to be 49.1

---

Entries and their Tm
# run_description: melting temperature; fluorescence melt of hairpins on a sequencing array, two-state fit, raised by 9.35 °C to match UV melts
# condition_label: sodium 0.088 M
Write down the numeric answer in °C and omit the unit.

Please review the following examples before continuing.
residue_codes: GGAAGCGGAAACGCCTCC (((.(((....))).)))
unit_name: °C
value_reported: 45.6
--
residue_codes: GAATCTGGAAACAGGTTC (((.(((....))).)))
unit_name: °C
value_reported: 44
--
residue_codes: GAGCAAGAAATTGCTC ((((((....))))))
unit_name: °C
value_reported: 54.8
--
residue_codes: GAAATCGGAAACGGTTTC ((((.((....)).))))
unit_name: °C
value_reported: 46.5
--
residue_codes: GGGGGACGAAAGTCTCCC (((.(((....))).)))
unit_name: °C
value_reported: 66

The value of Tm measured for the sequence GGGAAGGGAAACCTTTCC ((.((((....)))).)) turned out to be 45.7

The value of Tm measured for the sequence GCAGTCGAAAGACGGTGC ((((((....)))..))) turned out to be 48.5

The value of Tm measured for the sequence GAATTTGAAAAAATTC ((((((....)))))) turned out to be 38.8

The value of Tm measured for the sequence GTTCTGTCGAAAGACAAC (((..(((....)))))) turned out to be 23.8

The value of Tm measured for the sequence GATCGTAACCACGATC ((((((....)))))) turned out to be 54.8

The value of Tm measured for the sequence GTGTTTCGAAAGAAGCAC (((.(((....))).))) turned out to be 51

The value of Tm measured for the sequence CGGCCGGAAACGGAGCCG ((((((....)))..))) turned out to be 54.6

The value of Tm measured for the sequence GTAACCGAAAGGTATAC ((((((....))).))) turned out to be 35.2

---

Entries and their Tm
# run_description: melting temperature; fluorescence melt of hairpins on a sequencing array, two-state fit, raised by 9.35 °C to match UV melts
# condition_label: sodium 0.088 M
Write down the numeric answer in °C and omit the unit.

residue_codes: GTCGAGGGAAACTTCGAC (((((.(....).)))))
unit_name: °C
Tm: 49.6
--
residue_codes: GCGATCTTTCGC ((((....))))
unit_name: °C
Tm: 51.4
--
residue_codes: GCCATCGAAAGATGCGGC ((((((....)))..)))
unit_name: °C
Tm: 49.2
--
residue_codes: GATCCACCAATGGATC ((((((....))))))
unit_name: °C
Tm: 48.5

In the following, a different sequence is considered.
The value of Tm measured for the sequence GTATCTCGAAAGAGGTAC (((.(((....))).))) turned out to be 48.7

---

# run_description: melting temperature; fluorescence melt of hairpins on a sequencing array, two-state fit, raised by 9.35 °C to match UV melts
# condition_label: sodium 0.088 M
Classify: Satisfied when Tm is strictly less than 50 °C; Not satisfied when Tm is not.

residue_codes: GGCTCACCGAAAGGTGCC (((..(((....))))))
assigned_category: Satisfied

residue_codes: GATCTTTGGCAAGATC ((((((....))))))
assigned_category: Satisfied

residue_codes: GCGCGAGGAAACCCACGC (((.(.(....).).)))
assigned_category: Satisfied

residue_codes: GTGCTTGCGAAAGCACAC (((..(((....))))))
assigned_category: Not satisfied

residue_codes: GTTAAAGGAAACTTTAAC (((((((....)))))))
assigned_category: Satisfied

residue_codes: GATCTTCGCAAGATC ((((((...))))))
assigned_category: Satisfied

residue_codes: GGACGCGAAAGCGGGTCC ((((((....)))..)))
assigned_category: Not satisfied

residue_codes: CGCTCGGAAACGATGGCG ((((((....)))..)))
assigned_category: Satisfied

Problem: I wonder whether GTTTTAGGAAACTAGAAC (((.(((....))).))) has Tm below 50 °C. Can you tell?
Solution: Satisfied

Problem: I wonder whether GATCGCTTACGCGATC ((((((....)))))) has Tm below 50 °C. Can you tell?
Solution: Not satisfied

Problem: I wonder whether GATCCTGCCTAGGATC ((((((....)))))) has Tm below 50 °C. Can you tell?
Solution: Not satisfied

Problem: I wonder whether GCGTGGCGAAAGCAAAGC ((.(.((....)).).)) has Tm below 50 °C. Can you tell?
Solution: Not satisfied

Problem: I wonder whether GTGGGTGGAAACGCTCAC (((.(.(....).).))) has Tm below 50 °C. Can you tell?
Solution: Satisfied

Problem: I wonder whether GTAGTAGCGAAAGCTTAC (((..(((....)))))) has Tm below 50 °C. Can you tell?
Solution: Satisfied
